Origin of values: paper PMC11819603

Target: DHPS (Homo sapiens)
Construct: host or cells: E. coli BL21 (DE3)
Sequence (P49366 1-369): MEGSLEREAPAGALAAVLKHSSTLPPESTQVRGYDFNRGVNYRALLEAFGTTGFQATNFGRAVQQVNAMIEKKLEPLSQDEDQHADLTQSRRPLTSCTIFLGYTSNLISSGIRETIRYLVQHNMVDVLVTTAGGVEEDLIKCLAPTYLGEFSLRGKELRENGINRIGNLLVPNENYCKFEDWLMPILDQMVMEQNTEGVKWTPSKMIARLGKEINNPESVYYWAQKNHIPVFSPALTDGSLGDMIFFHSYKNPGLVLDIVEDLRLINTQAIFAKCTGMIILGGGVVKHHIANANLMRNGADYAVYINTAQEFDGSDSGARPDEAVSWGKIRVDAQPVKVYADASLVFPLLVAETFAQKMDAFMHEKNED
Experiment: Hyp'Assay: cell-free eIF5A hypusination in 96-well plates (recombinant eIF5A, DHPS, DOHH; anti-hypusine antibody Hpu24), substance present in the DHPS step
Assay type: biochemical
Conditions: concentration 100 (no unit on page; Fig 5A 0 to 1 mM); 5 μM spermidine; control 98,5
Below, each entry is listed with its recorded hypusination signal, Mean (quantification from Figure 5A).
Measurement label: hypusination signal, Mean (quantification from Figure 5A)

{"Compound": "N=C(N)NCCCCCCCCO [compound 4, 8-hydroxyoctylguanidine]", "System tested": "DHPS (Homo sapiens)", "Observed": "67,2"}
{"Compound": "N=C(N)NCCCCCCO [compound 2, 6-hydroxyhexylguanidine]", "System tested": "DHPS (Homo sapiens)", "Observed": "59,1"}
{"Compound": "N=C(N)NCCCCO [compound 1, 4-hydroxybutylguanidine]", "System tested": "DHPS (Homo sapiens)", "Observed": "61,5"}
{"Compound": "N=C(N)NCCCCCCCO [compound 3, 7-hydroxyheptylguanidine]", "System tested": "DHPS (Homo sapiens)", "Observed": "63,6"}

====

Reported hypusination signal, Mean (quantification from Figure 3C) values for the following compounds.
Target: DOHH (Homo sapiens, UniProt Q9BU89)
Construct: pelB leader (N); host or cells: E. coli BL21 (DE3)
Sequence (Q9BU89 1-302): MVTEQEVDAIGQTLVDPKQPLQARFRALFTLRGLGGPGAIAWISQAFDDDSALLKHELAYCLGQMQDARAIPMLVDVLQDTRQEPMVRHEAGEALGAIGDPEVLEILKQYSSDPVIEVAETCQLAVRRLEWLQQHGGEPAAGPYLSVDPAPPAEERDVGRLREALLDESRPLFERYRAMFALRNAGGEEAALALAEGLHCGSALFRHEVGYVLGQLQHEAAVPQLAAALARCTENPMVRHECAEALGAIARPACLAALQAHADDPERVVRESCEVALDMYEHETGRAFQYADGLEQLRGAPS
Assay: Hyp'Assay, substance added after the deoxyhypusination reaction (DOHH step)
Format: biochemical
Settings: concentration 10 (no unit on page; Fig 3C dose-response 0 to 100 μM); control 100,0
Measurement label: hypusination signal, Mean (quantification from Figure 3C)

{"Compound": "NCCCCNCCCN", "System tested": "DOHH (Homo sapiens, UniProt Q9BU89)", "Observed": "82,59"}
{"Compound": "Cc1cc(C2CCCCC2)n(O)c(=O)c1", "System tested": "DOHH (Homo sapiens, UniProt Q9BU89)", "Observed": "85,18"}
{"Compound": "Nc1nc(=O)c2nc(CNc3ccc(C(=O)N[C@@H](CCC(=O)O)C(=O)O)cc3)cnc2[nH]1 [Folate, folic acid]", "System tested": "DOHH (Homo sapiens, UniProt Q9BU89)", "Observed": "57,32"}
{"Compound": "CC(=O)N(O)CCCCCNC(=O)CCC(=O)N(O)CCCCCNC(=O)CCC(=O)N(O)CCCCCN", "System tested": "DOHH (Homo sapiens, UniProt Q9BU89)", "Observed": "58,42"}
{"Compound": "NCCCNCCCCNCCCN", "System tested": "DOHH (Homo sapiens, UniProt Q9BU89)", "Observed": "59,12"}
